- experimental.system: Bcl-2-like protein 10 (Homo sapiens)
- Sequence (Q9HD36 whole entry): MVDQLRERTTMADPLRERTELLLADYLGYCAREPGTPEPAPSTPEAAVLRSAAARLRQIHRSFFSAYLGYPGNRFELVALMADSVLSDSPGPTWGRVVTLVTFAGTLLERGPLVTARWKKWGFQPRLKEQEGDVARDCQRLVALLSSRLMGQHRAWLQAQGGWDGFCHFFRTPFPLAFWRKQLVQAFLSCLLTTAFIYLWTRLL
- run.description: Bcl-B/TR3 peptide binding disruption – biochemical, fluorescence polarization, FITC-TR3 peptide, selectivity assay for Bfl-1 inhibitor project, primary screen (AID 748);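 also: fluorescence polarization from a fluorescein-labelled TR3 peptide binding purified Bcl-B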
The source made the active and inactive calls.
assay.metric: IC50

compound | IC50
Cn1c(C(C#N)C2=C(Cl)C(=O)N(c3ccccc3)C2=O)nc2ccccc21 (stereo not given) | 16.5 µM (active)

Item CN1CCc2c(sc3c2c(NCc2ccco2)nc2nnnn23)C1 : provide IC50
38.8 µM (active)

Item CCS(=O)(=O)NCc1ccc2c(c1)cc(C)n2C : provide IC50
> 50 µM (inactive)

Item Cc1ccc(OCC(=O)Nc2ccc(N3CCCC3)cc2)cc1C : provide IC50
40.8 µM (active)

Item O=C(Nc1ccccc1N1CCOCC1)c1cc(-c2ccco2)nc2ccccc12 : provide IC50
95.1 µM (inactive)

###

- run.description: non-specific 3'UTR reporter inhibition in Clone20-Shn3RL – cell-based, Renilla luciferase, cherry-picked, counter-screen for Shn3 inhibitor project, dose response (AID 624133)
- Assay type: functional
Activity calls are given as the source filed them.
assay.metric: AC50

The examples below pair each entry with its known result.
compound | experimental.value
COc1ccccc1CNc1nc(NCc2ccccc2SC)c2sccc2n1 | 5.2 µM (active)
COC(=O)C1=C(c2ccc(F)cc2OCc2ccccc2)C[C@@H]2CC[C@H]1N2C(=O)NCc1ccc(C(F)(F)F)cc1 | 7.19 µM (active)
CCCOC(=O)c1[nH]c2c(c1C)C(=O)CC(c1cc(OC)c(OC)c(OC)c1)C2 (centres undefined) | 6.82 µM (active)

Item CC[C@@H](C(=O)[C@@H](C)[C@@H](O)[C@H](C)CCc1ccc(C)c(O)c1C(=O)O)[C@H]1O[C@](CC)([C@H]2CC[C@](O)(CC)[C@H](C)O2)C[C@@H]1C [LASALOCID A SODIUM] : provide AC50
8.23 µM (active)

###

List of AC50 values.
- experimental.system: Cytochrome P450 3A4 (Homo sapiens, UniProt P08684);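 also: confirmatory qHTS run detecting inhibitors and substrates of CYP3A4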
- Sequence (P08684 whole entry): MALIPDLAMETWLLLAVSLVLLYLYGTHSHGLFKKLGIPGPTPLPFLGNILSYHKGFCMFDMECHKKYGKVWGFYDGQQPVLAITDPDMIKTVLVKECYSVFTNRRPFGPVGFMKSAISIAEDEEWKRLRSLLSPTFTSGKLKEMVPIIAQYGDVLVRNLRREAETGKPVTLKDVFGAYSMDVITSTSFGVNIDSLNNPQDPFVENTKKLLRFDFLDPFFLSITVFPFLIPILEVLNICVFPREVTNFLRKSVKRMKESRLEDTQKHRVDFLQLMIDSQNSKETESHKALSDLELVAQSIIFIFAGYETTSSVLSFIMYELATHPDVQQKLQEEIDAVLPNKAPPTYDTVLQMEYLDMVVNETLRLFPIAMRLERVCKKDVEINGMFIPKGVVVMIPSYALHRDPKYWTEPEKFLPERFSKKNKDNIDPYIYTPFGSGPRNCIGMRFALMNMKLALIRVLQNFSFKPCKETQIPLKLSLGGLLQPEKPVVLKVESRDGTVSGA
- protocol.conditions: Potency

The examples below pair each entry with its known result.
molecule | AC50
CCCn1c(-c2ccc(F)cc2)nc2c(NCCCCN(C)C)nc(C)nc21 | 25.1 µM (inconclusive)
c1ccc2c(Cc3c[nH]c4ccccc34)c[nH]c2c1 | 39.8 µM (inconclusive)

Would you kindly look at the next entry?
Item O=C(CCc1ccc(O)cc1)c1c(O)cc(O)cc1O[C@H]1OC(CO)C(O)C(O)C1O (stereo partly drawn) : provide AC50
39.8 µM (inconclusive)

###

- experimental.system: Replicative DNA helicase DnaB (Mycobacterium tuberculosis)
- run.description: DnaB intein splicing inhibitors, dose response, biochemical, cell-free fluorescence (AID 449749)
- Type: functional
Activity calls are given as the source filed them.
List of AC50 values.

compound | experimental.value
Cc1nn(-c2ccccc2)c2c1C1(C(=O)N3c4c(cccc41)C(C)CC3(C)C)C(C#N)=C(N)O2 (stereo not drawn) | 4.61 µM (active)
O=C1NC2=C(CCc3ccccc32)C(c2ccccc2)N1 (stereo not drawn) | 2.19 µM (active)
CCOC(=O)c1ccc(N2C(=O)c3[nH]nc(-c4ccco4)c3C2c2ccc([N+](=O)[O-])cc2)cc1 (stereo not drawn) | 2.92 µM (active)
O=C1COc2ccc(C(=O)CCl)cc2N1 | 40.4 µM (active)

Item O=C(CSc1nnc(-c2ccccc2Cl)o1)Oc1ccc(Br)cc1 : provide AC50
1.42 µM (active)

Item Cc1cccc(CS(=O)(=O)c2ncc(Cl)c(C(=O)NCc3ccc4c(c3)OCO4)n2)c1 : provide AC50
3.39 µM (active)

Item O=C(NC(NC(=S)Nc1ccc(Cl)cc1Cl)C(Cl)(Cl)Cl)c1cccc([N+](=O)[O-])c1 (stereo not drawn) : provide AC50
2.33 µM (active)

Item Cc1ccc(C(=O)NC2(O)C(=O)c3ccccc3C2=O)cc1C : provide AC50
6.24 µM (active)

###

- experimental.system: Sentrin-specific protease 7 (Homo sapiens, UniProt Q9BQF6);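 also: Luminescence-based dose-response confirmation of ultra-high-throughput screening hits, measuring inhibition of SENP7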
- Sequence (Q9BQF6 whole entry): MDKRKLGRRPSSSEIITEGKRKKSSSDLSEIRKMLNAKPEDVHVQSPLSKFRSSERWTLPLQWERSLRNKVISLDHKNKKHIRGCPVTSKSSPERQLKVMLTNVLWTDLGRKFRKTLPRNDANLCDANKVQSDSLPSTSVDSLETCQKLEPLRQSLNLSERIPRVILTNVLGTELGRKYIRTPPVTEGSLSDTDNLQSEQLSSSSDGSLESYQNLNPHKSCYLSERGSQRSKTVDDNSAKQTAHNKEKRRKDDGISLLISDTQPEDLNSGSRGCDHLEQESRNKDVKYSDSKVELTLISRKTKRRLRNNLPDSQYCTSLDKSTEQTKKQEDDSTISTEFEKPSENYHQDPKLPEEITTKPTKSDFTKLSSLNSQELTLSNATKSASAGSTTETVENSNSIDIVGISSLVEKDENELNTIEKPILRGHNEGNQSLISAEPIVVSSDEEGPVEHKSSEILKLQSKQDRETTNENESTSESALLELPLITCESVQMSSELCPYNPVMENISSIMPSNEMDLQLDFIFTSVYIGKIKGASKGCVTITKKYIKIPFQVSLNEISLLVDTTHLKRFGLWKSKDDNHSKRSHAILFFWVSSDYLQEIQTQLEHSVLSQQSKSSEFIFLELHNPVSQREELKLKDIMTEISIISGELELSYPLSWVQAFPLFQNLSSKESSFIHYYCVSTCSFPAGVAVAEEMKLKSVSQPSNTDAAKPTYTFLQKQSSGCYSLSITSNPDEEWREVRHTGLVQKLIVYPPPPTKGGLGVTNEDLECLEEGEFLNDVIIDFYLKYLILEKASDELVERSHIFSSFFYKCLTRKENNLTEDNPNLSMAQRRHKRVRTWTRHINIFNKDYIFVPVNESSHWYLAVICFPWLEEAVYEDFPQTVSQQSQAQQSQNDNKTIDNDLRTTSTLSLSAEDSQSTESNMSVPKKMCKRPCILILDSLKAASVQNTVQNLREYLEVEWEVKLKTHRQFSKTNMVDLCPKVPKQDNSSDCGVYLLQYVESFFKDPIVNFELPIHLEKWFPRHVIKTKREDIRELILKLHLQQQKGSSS
- Format: functional
Active and inactive are the calls of the source.
assay.metric: IC50

compound.structure | experimental.system | assay.metric | experimental.value
Cc1ccc(C(=O)NC2(O)C(=O)c3ccccc3C2=O)cc1C | Sentrin-specific protease 7 (Homo sapiens, UniProt Q9BQF6) | IC50 | 4.4 µM (active)
CCCCOC(=O)Nc1ccc2c(C)cc(=O)oc2c1 | Sentrin-specific protease 7 (Homo sapiens, UniProt Q9BQF6) | IC50 | 4.58 µM (active)
COc1ccc(C(N)=NOC(=O)CSc2ccccc2)cc1 | Sentrin-specific protease 7 (Homo sapiens, UniProt Q9BQF6) | IC50 | 5.98 µM (active)
Cc1ccc(-c2nnc(SCc3ccccc3F)o2)cc1 | Sentrin-specific protease 7 (Homo sapiens, UniProt Q9BQF6) | IC50 | 5.03 µM (active)
O=C(c1cc(-c2ccc(Cl)cc2Cl)on1)N1CCCCCC1 | Sentrin-specific protease 7 (Homo sapiens, UniProt Q9BQF6) | IC50 | 6.51 µM (active)

Would you kindly look at the next entry?
Item Cc1cc(C=C2C(=O)c3ccccc3C2=O)c(C)n1C : provide IC50
24.6 µM (active)

###

- experimental.system: Tyrosyl-DNA phosphodiesterase 2 (Homo sapiens)
- Sequence (O95551 whole entry): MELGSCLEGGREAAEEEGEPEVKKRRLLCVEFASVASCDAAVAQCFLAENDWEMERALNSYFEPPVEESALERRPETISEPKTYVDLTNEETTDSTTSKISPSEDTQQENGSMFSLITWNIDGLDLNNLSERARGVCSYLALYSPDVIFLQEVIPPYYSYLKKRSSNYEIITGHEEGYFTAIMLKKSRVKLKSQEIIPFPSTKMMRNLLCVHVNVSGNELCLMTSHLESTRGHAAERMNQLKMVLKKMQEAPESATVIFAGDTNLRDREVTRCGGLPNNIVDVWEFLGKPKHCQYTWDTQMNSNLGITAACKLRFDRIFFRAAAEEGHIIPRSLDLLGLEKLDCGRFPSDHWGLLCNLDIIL
- run.description: potency against TDP2 phosphodiesterase activity – biochemical, epi absorbance, IC50, dose response (AID 743297)
Calls of active or inactive are those of the source.
Response enum: label 1 (active), label 0 (inactive)

compound.structure | class.name
Cc1ccc(S(=O)(=O)/N=C2\C=C(Nc3cccc(C(=O)O)c3)C(=O)c3ccccc32)cc1 | label 1

Which outcome was assigned to O=[N+]([O-])c1c(Nc2ccccn2)cc(Cl)c2nonc12 in this test?
label 0

Which outcome was assigned to Cc1ccc(C(=O)NC2(O)C(=O)c3ccccc3C2=O)cc1C in this test?
label 1

Which outcome was assigned to O=C1NC(=O)C(=Cc2ccccc2[N+](=O)[O-])S1 in this test?
label 0

###

List of IC50 values.
- experimental.system: Induced myeloid leukemia cell differentiation protein Mcl-1 (Homo sapiens, UniProt Q07820)
- Sequence (Q07820 whole entry): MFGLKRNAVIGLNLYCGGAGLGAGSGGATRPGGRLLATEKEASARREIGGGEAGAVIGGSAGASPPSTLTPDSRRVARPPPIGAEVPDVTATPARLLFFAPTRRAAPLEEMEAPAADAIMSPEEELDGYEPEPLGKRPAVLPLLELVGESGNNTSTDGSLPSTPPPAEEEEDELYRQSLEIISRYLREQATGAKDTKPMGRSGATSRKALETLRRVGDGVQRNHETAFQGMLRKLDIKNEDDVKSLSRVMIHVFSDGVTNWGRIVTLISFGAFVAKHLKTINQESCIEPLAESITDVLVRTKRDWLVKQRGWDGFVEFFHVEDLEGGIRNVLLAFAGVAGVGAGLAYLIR
- Assay type: functional
Activity calls are given as the source filed them.

The examples below pair each entry with its known result.
compound.structure | IC50
CCOC(=O)c1c(CSc2ccc(C)cc2)n(C)c2cc(Br)c(O)c(CN(C)C)c12 | 2.7 µM (active)
O=C(O)Cc1c[nH]c2cccc(O)c12 | 4.87 µM (active)
Cc1ccc(OCC(=O)Nc2ccc(N3CCCC3)cc2)cc1C | 6.68 µM (active)
COc1ccc(NC(=O)Cn2ncc(Cl)c(Cl)c2=O)cc1S(=O)(=O)N1CCOCC1 | 6.5 µM (active)

Would you kindly look at the next entry?
Provide measured IC50 on Induced myeloid leukemia cell differentiation protein Mcl-1 (Homo sapiens, UniProt Q07820) for CC1=NN(c2cccc(C(=O)O)c2)C(=O)/C1=C\C=C\c1ccco1 please.
4.73 µM (active)

###

List of EC50 values.
- experimental.system: Insulin-degrading enzyme (Homo sapiens)
- Sequence (P14735 whole entry): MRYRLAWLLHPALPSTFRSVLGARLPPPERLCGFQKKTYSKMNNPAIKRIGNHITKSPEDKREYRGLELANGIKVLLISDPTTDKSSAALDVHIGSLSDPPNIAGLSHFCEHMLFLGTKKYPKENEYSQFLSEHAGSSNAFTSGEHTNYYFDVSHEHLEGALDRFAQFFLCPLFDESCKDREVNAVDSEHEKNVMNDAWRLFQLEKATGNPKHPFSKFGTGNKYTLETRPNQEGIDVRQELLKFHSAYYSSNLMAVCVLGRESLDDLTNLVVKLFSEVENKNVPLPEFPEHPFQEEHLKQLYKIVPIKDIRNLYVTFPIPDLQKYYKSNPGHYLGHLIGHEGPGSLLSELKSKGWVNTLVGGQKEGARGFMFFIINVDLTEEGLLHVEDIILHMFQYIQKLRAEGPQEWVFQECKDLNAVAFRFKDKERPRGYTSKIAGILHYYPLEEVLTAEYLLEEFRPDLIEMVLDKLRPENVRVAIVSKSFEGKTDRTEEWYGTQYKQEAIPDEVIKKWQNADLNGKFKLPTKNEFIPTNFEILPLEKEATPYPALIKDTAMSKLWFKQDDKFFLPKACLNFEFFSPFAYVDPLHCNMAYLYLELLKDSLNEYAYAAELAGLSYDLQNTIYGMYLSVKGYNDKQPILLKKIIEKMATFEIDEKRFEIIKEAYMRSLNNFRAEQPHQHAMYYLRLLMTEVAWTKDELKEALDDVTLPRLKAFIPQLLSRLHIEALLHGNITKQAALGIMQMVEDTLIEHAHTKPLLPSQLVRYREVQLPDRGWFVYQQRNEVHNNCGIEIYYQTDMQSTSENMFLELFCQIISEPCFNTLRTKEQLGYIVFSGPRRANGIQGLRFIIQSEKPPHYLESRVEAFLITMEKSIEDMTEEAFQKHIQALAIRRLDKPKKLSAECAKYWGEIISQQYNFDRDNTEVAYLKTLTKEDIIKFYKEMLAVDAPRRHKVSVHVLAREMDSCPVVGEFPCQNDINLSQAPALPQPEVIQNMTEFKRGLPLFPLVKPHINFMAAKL
- run.description: recombinant IDE activation, cell-free – biochemical, fluorescence polarization, counter-screen for IDE activator project, dose response (AID 588681)
Calls of active or inactive are those of the source.

molecule | EC50
COc1ccc(OC)c(C(=O)COC(=O)CN2C(=O)NC3(CCCCC3C)C2=O)c1 (stereo unspecified) | > 54.7 µM (inactive)

Item COc1ccc(NC(=O)c2cc([N+](=O)[O-])ccc2O)cc1 : provide EC50
> 54.7 µM (inactive)

Item FC(F)(F)c1cc(CCN2CCNC[C@@H]2CC2CCCCC2)cc(C(F)(F)F)c1 : provide EC50
> 54.7 µM (inactive)

Item CN(c1ccccc1)S(=O)(=O)c1cccc(NC(=O)COc2cccc([N+](=O)[O-])c2)c1 : provide EC50
> 54.7 µM (inactive)

Item CC[C@@H](C)[C@H](CNC)NC[C@@H](Cc1cccc2ccccc12)NCCc1cccc(C(F)(F)F)c1 : provide EC50
> 54.7 µM (inactive)

Item Nc1cc(N)nc(SCCOc2ccccc2)n1 : provide EC50
> 54.7 µM (inactive)

###

List of AC50 values.
- experimental.system: DNA repair and recombination protein RAD54-like (Homo sapiens, UniProt Q92698)
- Sequence (Q92698 whole entry): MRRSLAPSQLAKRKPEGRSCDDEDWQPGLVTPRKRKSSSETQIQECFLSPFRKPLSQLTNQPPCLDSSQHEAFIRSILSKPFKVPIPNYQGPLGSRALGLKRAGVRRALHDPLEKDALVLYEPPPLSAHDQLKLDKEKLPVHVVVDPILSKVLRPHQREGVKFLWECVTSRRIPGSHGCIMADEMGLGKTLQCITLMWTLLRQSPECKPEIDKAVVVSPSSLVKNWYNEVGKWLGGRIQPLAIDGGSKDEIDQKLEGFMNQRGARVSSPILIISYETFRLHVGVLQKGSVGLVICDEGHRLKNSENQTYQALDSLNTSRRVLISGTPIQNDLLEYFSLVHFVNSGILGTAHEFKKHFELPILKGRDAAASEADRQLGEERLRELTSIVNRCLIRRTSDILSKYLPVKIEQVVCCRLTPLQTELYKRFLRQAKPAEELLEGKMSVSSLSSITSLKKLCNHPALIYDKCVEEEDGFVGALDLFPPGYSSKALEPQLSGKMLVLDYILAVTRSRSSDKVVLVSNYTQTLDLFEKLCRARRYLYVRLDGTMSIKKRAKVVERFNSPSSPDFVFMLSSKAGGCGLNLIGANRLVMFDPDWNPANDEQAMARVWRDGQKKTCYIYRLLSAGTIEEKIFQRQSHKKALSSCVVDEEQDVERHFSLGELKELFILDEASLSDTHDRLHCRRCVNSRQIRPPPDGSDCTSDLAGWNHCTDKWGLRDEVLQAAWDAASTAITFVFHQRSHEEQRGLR
- run.description: RAD54 Holliday junction migration blockers – biochemical, fluorescence, cherry-picked samples, dose series, confirmation (AID 651657)
- Type: functional
Activity calls are given as the source filed them.

compound.structure | AC50
COc1cc(-c2cnc3c(NC=O)cc(-c4cccc(C(=O)NCCN(C)C)c4)cn23)cc(OC)c1OC | 8.57 µM (active)
COc1ccc(CCNC(=O)c2cc3c(=O)n4ccccc4nc3n(CCCN3CCOCC3)c2=N)cc1OC | 31 µM (active)
COc1cc(Nc2c3ccccc3nc3ccccc23)cc(OC)c1OC | 14.8 µM (active)

Would you kindly look at the next entry?
Item CN(C)CCCN(C(=O)c1ccco1)c1nc(-c2ccc(Cl)cc2)cs1 : provide AC50
64.1 µM (active)
